# Tested on: Es-2
# Measurement notes: Primary qHTS to identify gynecologic anti-cancer compounds using libraries of approved drugs and bioactive compounds (AID 1345084); further: on the % scale 0 is the no-effect control and ±100 the full control effect; nearly all actives have a fitted effect of over 55% in size
# Test settings: Gynecologic cancer cell panel viability, ATPlite luminescence, 48 h; series mostly up to 57.5 µM
Inconclusive results are not listed. Calls of active or inactive are those of the source. The call rests on the fitted dose curve; in most records, active means well fitted cell-killing curve with a large enough effect; inconclusive means small, poorly fitted or top-dose-only effect, or effect the other way; inactive means flat fitted curve, though single readings scatter.
Parameter: activity change, negative = cytotoxicity

Solved cases below.
* CC(/C=C/C=C(\C)C(=O)O[C@@H]1O[C@H](CO[C@@H]2O[C@H](CO)[C@@H](O)[C@H](O)[C@H]2O)[C@@H](O)[C@H](O)[C@H]1O)=C\C=C\C=C(C)\C=C\C=C(/C)C(=O)O[C@@H]1C[C@](O)(C(=O)O)C[C@@H](O)[C@H]1OC(=O)/C=C/c1ccc(O)c(O)c1 | 1.04% [at 11.6 µM] (inactive)
* Cc1occc(=O)c1O[C@@H]1O[C@H](CO[C@@H]2OC[C@](O)(CO)[C@H]2O)[C@@H](O)[C@H](O)[C@H]1O | inactive
* CC(C)(O)[C@@H]1CC[C@]2(CO)[C@@H](O)CC[C@](C)(O)[C@H]2[C@@H]1O[C@@H]1O[C@H](CO)[C@@H](O)[C@H](O)[C@H]1O | inactive
* COC(=O)[C@]1(Cc2ccc(O)c(CC=C(C)C)c2)OC(=O)C(O)=C1c1ccc(O)cc1 | inactive
* N#Cc1cccc(-c2nc(-c3cccnc3)no2)c1 | inactive

Moving on to another compound below.
I am curious: what activity change, negative = cytotoxicity value has been reported for CC1(C)CCC2(C(=O)O)C(O)CC3(C)C(=CCC4C5(C)CCC(OC6OC(CO)C(O)C(O)C6OC6OC(CO)C(O)C(O)C6OC6OCC(O)(CO)C6O)C(C)(C)C5CCC43C)C2C1 (stereo unspecified) ?
-1.15% [at 11.6 µM] (inactive)

---

# System: HACAT
# Measurement notes: qHTS assay to identify novel small-molecules to repurpose for Merkel cell carcinoma treatment (AID 1296009); further: nearly all actives have a fitted effect of over 60% in size
# Test settings: MCC and control cell lines, CellTiter-Glo viability, 72 h; at 44.8 µM (top of the series) unless noted
Results filed as inconclusive are left out. The source made the active and inactive calls. The call rests on the fitted dose curve; in most records, active means well fitted inhibition curve with a large enough effect; inconclusive means small, poorly fitted or top-dose-only effect; inactive means flat fitted curve, though single readings scatter.
Parameter: outcome

Solved cases below.
- CCCC(C(=O)O)c1c(C)nc2ccc(Cl)cc2c1-c1ccccc1 (stereo unspecified): inactive
- CC(C)(O)C(O)C(=O)OCc1ccc(O[C@@H]2O[C@H](CO)[C@@H](O)[C@H](O)[C@H]2O)cc1 (stereo partly specified): inactive [at 17.4 µM]
- COc1cc(C(CO)C(OC2OC(CO)C(O)C(O)C2O)c2ccc(O)c(OC)c2)ccc1O (stereo unspecified): inactive [at 17.4 µM]
- C/C=C(\C)C(=O)OC1C2(O)CC3=C4CC(=O)OC(c5ccoc5)C4(C)CCC3C(C)(C2=O)C(C(OC(C)=O)C(=O)OC)C1(C)C (stereo unspecified): inactive [at 17.4 µM]
- C=C1C(O)C(O)C2(CC3C(C)=CCC4C(C)(C(=O)O)CCCC34C)OC2C1O (stereo unspecified): inactive
- COc1cc(CO)ccc1O[C@@H]1O[C@H](CO)[C@@H](O)[C@H](O)[C@H]1O: inactive

I am curious: what outcome value has been reported for CC1CCCCCCCc2cc(O)cc(O)c2C(=O)O1 (stereo unspecified) ?
inactive

I am curious: what outcome value has been reported for `COc1cccc(OC)c1-c1cc(C(=O)N[C@@H](CC(C)C)C(=O)O)nn1-c1ccnc2cc(Cl)ccc12` ?
inactive

I am curious: what outcome value has been reported for `Cc1cc(C)c2nc(-c3ccccn3)cc(C(=O)Nc3ccc(S(=O)(=O)Nc4onc(C)c4C)cc3)c2c1` ?
inactive

I am curious: what outcome value has been reported for `O=C(O)c1ccnc(-c2cc(C(=O)NCCc3ccccc3)ccn2)c1` ?
inactive

I am curious: what outcome value has been reported for CN1CCCC1Cc1c[nH]c2ccc(CCS(=O)(=O)c3ccccc3)cc12 (stereo unspecified) ?
inactive

I am curious: what outcome value has been reported for `O=C(O)C[C@H]1CCC(=O)[C@@H]1C/C=C\CCO` ?
inactive

I am curious: what outcome value has been reported for CC1(C)CCC[C@]2(C)C1CC=C(CO)[C@H]2CC/C(=C/CO)CO (stereo partly specified) ?
inactive

I am curious: what outcome value has been reported for C/C(=C\CCC(C)CCO)C(=O)OC[C@H]1O[C@@H](O[C@@H]2OC=C(C(=O)O)[C@H]3CC[C@](C)(O)[C@@H]23)C(O)[C@@H](O)C1O (stereo partly specified) ?
inactive [at 17.4 µM]

I am curious: what outcome value has been reported for `COc1ccc(-c2ccn(CC[C@](C)(C(=O)NO)S(C)(=O)=O)c(=O)c2)c(F)c1` ?
inactive

I am curious: what outcome value has been reported for CC(=O)OC1C(O)C(C)(O)C(/C=C/C(=O)O)C2(C)CCCC(C)(C)C12 (stereo unspecified) ?
inactive

I am curious: what outcome value has been reported for `OC[C@H]1O[C@@H](OCc2ccccc2)[C@H](O)[C@@H](O)[C@@H]1O` ?
inactive

I am curious: what outcome value has been reported for COc1cc(C)c(C(=O)NC2C(C)OC(OC3CCC(C)C4C3C=C(C)C3/C(C)=C\CC/C(C)=C/C5(C)C=C(C(=O)O)C(C)CC56OC(=O)/C(=C(\O)C34C)C6=O)C(O)C2(C)O)c(O)c1 (stereo unspecified) ?
inactive [at 9.27 µM]

I am curious: what outcome value has been reported for CC(C)CC(=O)NCCn1cc(C(=O)O)c(=O)cc1C(O)c1ccccc1 (stereo unspecified) ?
inactive

I am curious: what outcome value has been reported for `N#Cc1cc(-c2n[nH]c(-c3ccncc3)n2)ccn1` ?
inactive

I am curious: what outcome value has been reported for OCC(O)C(c1c[nH]c2ccccc12)c1c[nH]c2ccccc12 (stereo unspecified) ?
inactive

---

# Test system: Tov112D
# Measurement notes: Primary qHTS to identify gynecologic anti-cancer compounds using libraries of approved drugs and bioactive compounds (AID 1345084); further: on the % scale 0 is the no-effect control and ±100 the full control effect; nearly all actives have a fitted effect of over 55% in size
# Test settings: Gynecologic cancer cell panel viability, ATPlite luminescence, 48 h; series mostly up to 57.5 µM
Inconclusive results are not listed. Activity calls are given as the source filed them. The call rests on the fitted dose curve; in most records, active means well fitted cell-killing curve with a large enough effect; inconclusive means small, poorly fitted or top-dose-only effect, or effect the other way; inactive means flat fitted curve, though single readings scatter.
Parameter: activity change, negative = cytotoxicity

* Cc1ccc(-c2c(-c3nn(C)c4ncnc(N5CCC(N6CCCCC6)C5)c34)cnn2C)cc1 (stereo not drawn) | inactive
* CC(=O)O[C@@H]1[C@H](O[C@@H]2O[C@H](CO)[C@@H](O)[C@H](O)[C@H]2O)[C@@H](O[C@@H]2O[C@@H](C)[C@H](O)[C@@H](O[C@@H]3O[C@H](CO)[C@@H](O)[C@H](O)[C@H]3O)[C@H]2O)[C@H](OC(=O)[C@]23CCC(C)(C)C[C@H]2C2=CCC4[C@@]5(C)C[C@H](O)[C@H](O[C@@H]6O[C@H](C(=O)O)[C@@H](O)[C@H](O)[C@H]6O)[C@@](C)(C(=O)O)C5CC[C@@]4(C)[C@]2(C)CC3)O[C@@H]1C (stereo partly drawn) | 7.58% [at 6.55 µM] (inactive)
* Cc1c(Cc2ccc3ccccc3n2)c2cc(F)ccc2n1CC(=O)O | inactive

---

# Measurement notes: Primary fluorescence-based thiol-reactive (MSTI) qHTS assay for identification of artifact compounds. (AID 1845221); further: nearly all actives have a fitted effect of over 65% in size
# Test settings: MSTI thiol-reactivity probe, 1 h; series mostly up to 53.8 µM
Results filed as inconclusive are left out. Active and inactive are the calls of the source. The call rests on the fitted dose curve; in most records, active means well fitted inhibition curve with a large enough effect; inconclusive means small, poorly fitted or top-dose-only effect; inactive means no such curve, though single readings can be large or run the other way.
Outcome field: choose from active, inactive

# lookup: test call for CC12CC34CC(O)C5C(CO)(CO)CC(=O)CC5(C)C3CC1C2C4 (stereo unspecified)
inactive

# lookup: test call for `CC(C)=CCc1c(O)cc2oc3cc(C)cc(O)c3c2c1C`
active

# lookup: test call for CC[C@H]1OC(=O)[C@H](C)[C@@H](O[C@H]2C[C@@](C)(OC)[C@@H](O)[C@H](C)O2)C(C)[C@@H](O[C@@H]2O[C@H](C)C[C@H](N(C)C)[C@H]2O)[C@](C)(O)C[C@@H](C)CN(C)[C@H](C)[C@@H](O)[C@]1(C)O (stereo partly specified)
inactive

# lookup: test call for CC(=O)OC1CC2(C)C(CCC(C)C23Cc2c(O)cc4c(c2O3)CNC4=O)C(C)(C)C1O (stereo unspecified)
inactive

# lookup: test call for CC(C)c1ccc2c(c1)C(=O)CC1C(C)(C(=O)O)CCCC21C (stereo unspecified)
inactive

# lookup: test call for CC1=C2CC(=O)C(C)CC/C=C(\C)CC2(O)OC1=O (stereo unspecified)
inactive

# lookup: test call for COc1ccc(C(=O)OC2C3C=COC(OC4OC(CO)C(O)C(O)C4O)C3C3(CO)OC23)cc1OC (stereo unspecified)
active

# lookup: test call for CC(=O)OC1C(O)C(C)(O)C(/C=C/C(=O)O)C2(C)CCCC(C)(C)C12 (stereo unspecified)
inactive

# lookup: test call for `CC(=O)O[C@@H]1C=C2[C@H](CC[C@@]3(C)[C@@]2(O)CC[C@H]2Cc4c([nH]c5ccccc45)[C@@]23C)O[C@@H]1C(C)(C)O`
active

# lookup: test call for `FC(F)(F)Oc1ccc(-c2ccc3nnc(C(F)(F)F)n3c2)cc1`
inactive

# lookup: test call for `CO[C@@H]1[C@]2(O)C(=O)N3/C=C\C(C)(C)c4[nH]c5ccccc5c4/C=C\3C(=O)N2[C@]23[C@H](CO)C(C)(C)N2c2ccccc2[C@]13O`
active

# lookup: test call for `CCCC(=O)Nc1cccc(NC(=O)c2ccccc2Br)c1`
inactive

# lookup: test call for `O=C(/C=C/C=C/c1ccc2c(c1)OCO2)N1CCCCC1`
inactive

# lookup: test call for `C=C1C[C@]23C[C@@]1(O)CC[C@H]2[C@@]12C=C[C@H](O)[C@@](C)(C(=O)O1)[C@H]2[C@@H]3C(=O)O`
inactive

# lookup: test call for `C/C=C1/[C@H](O[C@@H]2O[C@H](CO)[C@@H](O)[C@H](O)[C@H]2O)OC=C(C(=O)OC)[C@H]1CC(=O)OCCc1ccc(O)c(O)c1`
active

# lookup: test call for `C=C1[C@H](OC(C)=O)[C@H]2[C@@H](OC(=O)c3ccccc3)[C@@H](C)C[C@]2(O)[C@@H](OC(C)=O)[C@H](C)/C=C/C(C)(C)C(=O)[C@H](OC(C)=O)[C@H]1OC(C)=O`
inactive

# lookup: test call for CC(C)(O)C(O)C(=O)OCc1ccc(O[C@@H]2O[C@H](CO)[C@@H](O)[C@H](O)[C@H]2O)cc1 (stereo partly specified)
inactive

# lookup: test call for `COc1ccc(CCc2nc3cc(-c4c(C)noc4C)ccc3n2C[C@H](C)N2CCOCC2)cc1Cl`
inactive

# lookup: test call for COC(=O)[C@H](O)[C@H]1C(C)(C)[C@H](OC(C)=O)[C@@]2(O)C(=O)[C@]1(C)C1CC[C@]3(C)C(CC(=O)O[C@H]3c3ccoc3)[C@]13O[C@@H]32 (stereo partly specified)
inactive

# lookup: test call for `CCN(CCN(C)C)C(=O)CNCc1cc(C(N)=O)ccn1`
inactive

# lookup: test call for C[C@]1(OC(=O)/C=C/c2ccc(O)cc2)C[C@@H](O)[C@]2(O)C=CO[C@@H](O[C@@H]3O[C@H](CO)[C@@H](O)[C@H](O)[C@H]3O)C12 (stereo partly specified)
inactive

# lookup: test call for CC(O)C/C=C/C=C/C(=O)OC1C=C2COC(=O)C2(O)C2(C)CCCC(C)(C)C12 (stereo unspecified)
inactive

# lookup: test call for `CC(=O)O[C@@H]1[C@@H](O)[C@H](C)O[C@@H](O[C@H]2[C@@H]3C=CO[C@@H](O[C@@H]4O[C@H](CO)[C@@H](O)[C@H](O)[C@H]4OC(C)=O)[C@@H]3[C@@]3(CO)O[C@@H]23)[C@@H]1OC(=O)/C=C/c1ccc(O)cc1`
active

# lookup: test call for C=C1CC2C3(C)C(O)CC(=O)C(C)(C)C3C(O)C(OC(C)=O)C2(C)C2C(=O)OC(C)(C(=O)OC)C(=O)C12C (stereo unspecified)
inactive

# lookup: test call for C=C1CCC2[C@](C)(CO)CCC[C@@]2(C)[C@@H]1CCC1=CCOC1=O (stereo partly specified)
inactive

# lookup: test call for C=C1C(OC(C)=O)CCC2(C)CC3(O)OC(=O)C(C)=C3CC12 (stereo unspecified)
inactive

# lookup: test call for `CC(=O)O[C@H]1[C@H](O[C@H]2CC[C@]34C[C@]35CC[C@]3(C)[C@@H]([C@@]6(C)CC[C@@H](C(C)(C)O)O6)[C@@H](O)C[C@@]3(C)[C@@H]5C[C@H](O[C@@H]3O[C@H](CO)[C@@H](O)[C@H](O)[C@H]3O)[C@H]4C2(C)C)OC[C@@H](OC(C)=O)[C@@H]1O`
inactive

# lookup: test call for COc1c2c(c(C)c3c1C(=O)OC3)OC1(C)CC(O)C34OC(O)(CCC3(C)C1C2)OC4(C)C (stereo unspecified)
inactive

# lookup: test call for C[C@@H](CC[C@@H]1[C@@]2(C)CCCC(C)(C)C2CC[C@@]1(C)O)CC(=O)O (stereo partly specified)
inactive

# lookup: test call for `CC1(C)COC(=O)[C@@H]1O[C@@H]1O[C@H](CO)[C@@H](O)[C@H](O)[C@H]1O`
inactive

# lookup: test call for `CCOc1nc2c(N)ncnc2n1CC`
inactive
